test: Permeability of the compound at 25 ug/ml after 18 hrs by PAMPA-BBB assay; assay type: ADME; settings: read-out: permeability
Observation type: Papp at 18 h, 25 ug/ml (×10⁻⁶ cm/s)
Give bare numbers, in ×10⁻⁶ cm/s.

INSERT INTO assay_data (compound, observation_type, assay_result) VALUES
  ('CCCS(=O)(=O)N1CC(=O)N(S(=O)(=O)CCC)CC1=O', 'Papp at 18 h, 25 ug/ml', 0.89),
  ('Cc1ccc(S(=O)(=O)N2C(=O)C(c3ccccc3)N(S(=O)(=O)c3ccc(C)cc3)C(=O)C2c2ccccc2)cc1 (stereo not drawn)', 'Papp at 18 h, 25 ug/ml', 11.3),
  ('O=C1CN(S(=O)(=O)c2ccc(F)cc2)C(=O)CN1S(=O)(=O)c1ccc(F)cc1', 'Papp at 18 h, 25 ug/ml', 10.3);

Provide Papp at 18 h, 25 ug/ml values for the following items, in order.
1. O=C1CN(S(=O)(=O)c2ccc(Cl)cc2)C(=O)CN1S(=O)(=O)c1ccc(Cl)cc1
2. Cc1cccc(S(=O)(=O)N2C(=O)C(c3ccccc3)N(S(=O)(=O)c3cccc(C)c3)C(=O)C2c2ccccc2)c1 (stereo not drawn)
3. O=C1C(Cc2ccccc2)N(S(=O)(=O)c2ccc([N+](=O)[O-])cc2)C(=O)C(Cc2ccccc2)N1S(=O)(=O)c1ccc([N+](=O)[O-])cc1 (stereo not drawn)

Resp:
6.43
11.8
4.49

====

target: UniProtKB O42275
Categorize each record by its IC50 using class 0 = under 60 nM, class 1 = from 60 nM up to 80 nM, class 2 = 80 nM and over

See these solved cases before continuing.
INSERT INTO results (molecule, assigned_category) VALUES
  ('O=C1CN(S(=O)(=O)c2cccc(Cl)c2)C(=O)CN1S(=O)(=O)c1cccc(Cl)c1', 'class 1'),
  ('O=C1C(Cc2ccccc2)N(S(=O)(=O)c2ccc([N+](=O)[O-])cc2)C(=O)C(Cc2ccccc2)N1S(=O)(=O)c1ccc([N+](=O)[O-])cc1 (stereo unspecified)', 'class 0'),
  ('CCCCS(=O)(=O)N1CC(=O)N(S(=O)(=O)CCCC)CC1=O', 'class 2'),
  ('O=C1C(Cc2ccccc2)N(S(=O)(=O)c2ccc(Br)cc2)C(=O)C(Cc2ccccc2)N1S(=O)(=O)c1ccc(Br)cc1 (stereo unspecified)', 'class 0'),
  ('O=C1C(Cc2ccccc2)N(S(=O)(=O)c2cccc(O)c2)C(=O)C(Cc2ccccc2)N1S(=O)(=O)c1cccc(O)c1 (stereo unspecified)', 'class 1');

Req: Class? Entry: Cc1ccc(S(=O)(=O)N2C(=O)C(c3ccccc3)N(S(=O)(=O)c3ccc(C)cc3)C(=O)C2c2ccccc2)cc1 (stereo unspecified)
Resp: class 1

Req: Which class holds `COc1ccc(S(=O)(=O)N2CC(=O)N(S(=O)(=O)c3ccc(OC)cc3)CC2=O)cc1` ?
Resp: class 2

Req: Lab note: which band did O=C1C(Cc2ccccc2)N(S(=O)(=O)c2ccc(Cl)cc2)C(=O)C(Cc2ccccc2)N1S(=O)(=O)c1ccc(Cl)cc1 (stereo unspecified) land in?
Resp: class 0

====

molecular target: 72 kDa type IV collagenase (Homo sapiens)
Observation type: Ki (nM)
Answers are plain numbers, in nM.

Req: Look up Ki for this molecule: O=C1C(c2ccccc2)N(S(=O)(=O)c2ccc(Cl)cc2)C(=O)C(c2ccccc2)N1S(=O)(=O)c1ccc(Cl)cc1 (stereo unspecified)
Resp: 20

====

assay: Permeability of the compound at 25 ug/ml after 18 hrs by PAMPA-BBB assay; format: ADME; details: read-out: permeability
Hi! Just check whether Papp at 18 h, 25 ug/ml is below 7 ×10⁻⁶ cm/s. Below gives criterion met, equal or above gives criterion not met.

Look over these answered cases.
INSERT INTO assay_data (molecule, assigned_category) VALUES
  ('O=C1C(c2ccccc2)N(S(=O)(=O)c2ccc(Br)cc2)C(=O)C(c2ccccc2)N1S(=O)(=O)c1ccc(Br)cc1 (stereo unspecified)', 'criterion not met'),
  ('O=C1C(Cc2ccccc2)N(S(=O)(=O)c2ccc(Cl)cc2)C(=O)C(Cc2ccccc2)N1S(=O)(=O)c1ccc(Cl)cc1 (stereo unspecified)', 'criterion not met');

Req: Input `Nc1ccc(S(=O)(=O)N2CC(=O)N(S(=O)(=O)c3ccc(N)cc3)CC2=O)cc1` ; condition: Papp at 18 h, 25 ug/ml strictly below 7 ×10⁻⁶ cm/s. Does it hold?
Resp: criterion met

Req: Decide: Papp at 18 h, 25 ug/ml of O=C1C(Cc2ccccc2)N(S(=O)(=O)c2cccc(O)c2)C(=O)C(Cc2ccccc2)N1S(=O)(=O)c1cccc(O)c1 (stereo unspecified) strictly below 7 ×10⁻⁶ cm/s?
Resp: criterion met

====

Hi there, I'd appreciate the recorded LD50 at 72 h for every entry that follows.
experiment: Toxicity in Wistar rat measured for 72 hrs; type: organism-based; conditions: in vivo
Give bare numbers, in mg/kg.

Answer for every listed entry: what is its LD50 at 72 h? The entries follow.
1. O=C1C(c2ccccc2)N(S(=O)(=O)c2ccc(Cl)cc2)C(=O)C(c2ccccc2)N1S(=O)(=O)c1ccc(Cl)cc1 (configuration not stated)
2. O=C1C(Cc2ccccc2)N(S(=O)(=O)c2ccc(Cl)cc2)C(=O)C(Cc2ccccc2)N1S(=O)(=O)c1ccc(Cl)cc1 (configuration not stated)

Resp:
200
200

====

Here we list compounds with their recorded IC50 when tested on 72 kDa type IV collagenase (Homo sapiens, UniProt P08253).
Sequence (P08253 whole entry): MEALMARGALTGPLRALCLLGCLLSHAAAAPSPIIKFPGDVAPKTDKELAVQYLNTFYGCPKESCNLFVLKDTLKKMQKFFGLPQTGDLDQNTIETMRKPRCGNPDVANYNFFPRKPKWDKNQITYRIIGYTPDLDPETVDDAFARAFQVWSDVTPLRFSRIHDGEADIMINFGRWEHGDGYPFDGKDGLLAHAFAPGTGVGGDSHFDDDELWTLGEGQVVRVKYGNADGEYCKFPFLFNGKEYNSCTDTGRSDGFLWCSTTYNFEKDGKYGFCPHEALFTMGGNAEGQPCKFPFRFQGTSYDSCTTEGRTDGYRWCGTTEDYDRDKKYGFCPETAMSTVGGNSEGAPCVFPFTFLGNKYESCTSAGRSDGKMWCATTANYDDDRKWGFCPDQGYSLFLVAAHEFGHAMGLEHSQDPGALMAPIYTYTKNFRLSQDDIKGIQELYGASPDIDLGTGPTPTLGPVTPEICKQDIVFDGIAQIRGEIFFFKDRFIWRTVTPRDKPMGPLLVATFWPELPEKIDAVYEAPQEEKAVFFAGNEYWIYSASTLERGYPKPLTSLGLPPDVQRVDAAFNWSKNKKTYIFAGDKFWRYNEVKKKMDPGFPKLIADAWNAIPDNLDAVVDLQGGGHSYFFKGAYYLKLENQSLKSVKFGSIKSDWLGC
Numbers only, in µM.

Here are 8 compounds together with their reported answers.
INSERT INTO results (compound, assay_result) VALUES
  ('O=C1CN(S(=O)(=O)c2ccc(Br)cc2)C(=O)CN1S(=O)(=O)c1ccc(Br)cc1', 0.0547),
  ('O=C1C(c2ccccc2)N(S(=O)(=O)c2ccc(Br)cc2)C(=O)C(c2ccccc2)N1S(=O)(=O)c1ccc(Br)cc1 (configuration not stated)', 0.0327),
  ('Cc1cccc(S(=O)(=O)N2C(=O)C(c3ccccc3)N(S(=O)(=O)c3cccc(C)c3)C(=O)C2c2ccccc2)c1 (configuration not stated)', 0.0738),
  ('O=C1CN(S(=O)(=O)c2ccc(F)cc2)C(=O)CN1S(=O)(=O)c1ccc(F)cc1', 0.0551),
  ('Cc1ccc(S(=O)(=O)N2CC(=O)N(S(=O)(=O)c3ccc(C)cc3)CC2=O)cc1', 0.0867),
  ('O=C1CN(S(=O)(=O)c2ccccc2)C(=O)CN1S(=O)(=O)c1ccccc1', 0.0822),
  ('O=C1C(c2ccccc2)N(S(=O)(=O)c2ccc([N+](=O)[O-])cc2)C(=O)C(c2ccccc2)N1S(=O)(=O)c1ccc([N+](=O)[O-])cc1 (configuration not stated)', 0.0335),
  ('O=C1C(Cc2ccccc2)N(S(=O)(=O)c2cccc(Br)c2)C(=O)C(Cc2ccccc2)N1S(=O)(=O)c1cccc(Br)c1 (configuration not stated)', 0.0581);

Give IC50 for all compounds that follow.
1. O=C1C(Cc2ccccc2)N(S(=O)(=O)c2ccc([N+](=O)[O-])cc2)C(=O)C(Cc2ccccc2)N1S(=O)(=O)c1ccc([N+](=O)[O-])cc1 (configuration not stated)
2. Nc1ccc(S(=O)(=O)N2C(=O)C(c3ccccc3)N(S(=O)(=O)c3ccc(N)cc3)C(=O)C2c2ccccc2)cc1 (configuration not stated)
3. O=C1C(Cc2ccccc2)N(S(=O)(=O)c2ccc(O)cc2)C(=O)C(Cc2ccccc2)N1S(=O)(=O)c1ccc(O)cc1 (configuration not stated)
4. O=C1CN(S(=O)(=O)c2cccc(Cl)c2)C(=O)CN1S(=O)(=O)c1cccc(Cl)c1
5. COc1ccc(S(=O)(=O)N2CC(=O)N(S(=O)(=O)c3ccc(OC)cc3)CC2=O)cc1

Resp:
1: 0.0538; 2: 0.0506; 3: 0.072; 4: 0.058; 5: 0.0753

Parameters: items (list). Returns: IC50 for each item.
1. O=C1CN(S(=O)(=O)c2ccc(Cl)cc2)C(=O)CN1S(=O)(=O)c1ccc(Cl)cc1
2. O=C1C(Cc2ccccc2)N(S(=O)(=O)c2cccc(O)c2)C(=O)C(Cc2ccccc2)N1S(=O)(=O)c1cccc(O)c1 (configuration not stated)

Resp:
1. 0.0497
2. 0.083

====

For Acetylcholinesterase (Electrophorus electricus, UniProt O42275), measured IC50 is reported for the entries below.
Answers are plain numbers, in nM.

Study these solved cases before continuing.
INSERT INTO measurements (compound, observation_type, units_of_measure, assay_result) VALUES
  ('O=C1CN(S(=O)(=O)c2ccc(F)cc2)C(=O)CN1S(=O)(=O)c1ccc(F)cc1', 'IC50', 'nM', 78.3),
  ('O=C1CN(S(=O)(=O)c2ccc(Cl)cc2)C(=O)CN1S(=O)(=O)c1ccc(Cl)cc1', 'IC50', 'nM', 61.6),
  ('O=C1C(c2ccccc2)N(S(=O)(=O)c2ccc(Br)cc2)C(=O)C(c2ccccc2)N1S(=O)(=O)c1ccc(Br)cc1 (stereo not drawn)', 'IC50', 'nM', 50.6);

Would you mind listing IC50 for each of the following compounds?
1. O=C1CN(S(=O)(=O)c2ccccc2)C(=O)CN1S(=O)(=O)c1ccccc1
2. O=C1C(c2ccccc2)N(S(=O)(=O)c2ccc([N+](=O)[O-])cc2)C(=O)C(c2ccccc2)N1S(=O)(=O)c1ccc([N+](=O)[O-])cc1 (stereo not drawn)
3. O=C1C(c2ccccc2)N(S(=O)(=O)c2ccc(Cl)cc2)C(=O)C(c2ccccc2)N1S(=O)(=O)c1ccc(Cl)cc1 (stereo not drawn)
4. Cc1cccc(S(=O)(=O)N2C(=O)C(c3ccccc3)N(S(=O)(=O)c3cccc(C)c3)C(=O)C2c2ccccc2)c1 (stereo not drawn)
5. O=C1C(Cc2ccccc2)N(S(=O)(=O)c2ccc(O)cc2)C(=O)C(Cc2ccccc2)N1S(=O)(=O)c1ccc(O)cc1 (stereo not drawn)

Resp:
1: 98.5; 2: 60.8; 3: 28.6; 4: 83.9; 5: 59.5
